system: Adenosine A1 receptor; assay: A1-agonist stimulated [35S]GTPγS binding to G proteins; format: biochemical; conditions: Table 1, compounds of Example 2; normalized to the full agonist CPA
experimental_readout: GTPγS (%)

// map O[C@@H]1[C@H](O)[C@@H](COC(=S)NC2CCC2)O[C@H]1n1cnc2c(NC3CCOC3)ncnc21 (stereo partly drawn) to recorded GTPγS (system: Adenosine A1 receptor) 79

P. O[C@@H]1[C@H](O)[C@@H](COC(=S)NC2CCCCC2)O[C@H]1n1cnc2c(N[C@@H]3CCOC3)ncnc21
Q. CCOC(=O)[C@H]1C2CCC(C2)[C@H]1NC(=O)OC[C@H]1O[C@@H](n2cnc3c(N[C@@H]4CCOC4)ncnc32)[C@H](O)[C@@H]1O (stereo partly drawn)
// task: argmin of GTPγS over [ P , Q ] API: response body contains the label of the selected item. Q
(Q: 41%, P: 82%)
